Ref: BindingDB's records for doi:10.1007/s10822-022-00478-x

molecular target: cAMP and cAMP-inhibited cGMP 3',5'-cyclic phosphodiesterase 10A (Homo sapiens, UniProt Q9Y233)
Sequence (Q9Y233 as listed by the source): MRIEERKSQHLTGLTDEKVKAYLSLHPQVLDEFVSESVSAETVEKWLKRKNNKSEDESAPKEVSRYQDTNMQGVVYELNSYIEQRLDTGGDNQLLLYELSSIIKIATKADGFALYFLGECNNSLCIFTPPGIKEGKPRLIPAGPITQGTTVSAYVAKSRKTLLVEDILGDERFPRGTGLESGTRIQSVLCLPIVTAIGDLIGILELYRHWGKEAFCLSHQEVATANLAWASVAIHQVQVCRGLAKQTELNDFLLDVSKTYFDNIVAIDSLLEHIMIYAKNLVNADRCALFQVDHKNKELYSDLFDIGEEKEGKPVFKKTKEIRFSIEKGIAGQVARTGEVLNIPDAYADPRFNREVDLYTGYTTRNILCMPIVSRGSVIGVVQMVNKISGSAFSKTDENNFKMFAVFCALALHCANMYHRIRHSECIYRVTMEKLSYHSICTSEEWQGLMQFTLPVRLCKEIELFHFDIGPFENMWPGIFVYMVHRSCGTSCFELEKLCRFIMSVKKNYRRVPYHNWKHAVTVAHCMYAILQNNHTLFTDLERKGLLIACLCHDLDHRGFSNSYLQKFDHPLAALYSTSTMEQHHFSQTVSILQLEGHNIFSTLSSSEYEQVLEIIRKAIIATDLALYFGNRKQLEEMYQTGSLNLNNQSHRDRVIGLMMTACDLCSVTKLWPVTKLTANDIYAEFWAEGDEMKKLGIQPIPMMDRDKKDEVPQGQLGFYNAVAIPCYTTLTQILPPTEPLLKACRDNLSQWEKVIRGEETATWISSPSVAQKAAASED
measured_parameter: IC50 (nM)

Quick note, IC50 for Cn1cc(-c2ccncc2)c(C(=O)Nc2cc(-c3ccccn3)nn2C)n1 [Roche-Dataset for PDE10A, Compound 1102] landed at 124

Quick note, IC50 for Cn1ncc(C(=O)N2CCC2)c1C(=O)Nc1cc(C2CCCCC2)n(C2CCCC2)n1 [Roche-Dataset for PDE10A, Compound 1101] landed at 783

P = Cc1ncc(C)n2nc(/C=C/c3nc(N4CCCN4C)nn3C)nc12 [Roche-Dataset for PDE10A, Compound 911]
Q = Cc1c(Cl)cc(Cl)c2nc(CCc3nn(C)cc3Cl)nn12 [Roche-Dataset for PDE10A, Compound 861]
Pick the one with the larger IC50: P vs Q Respond with the label that goes with your answer. P
